Target: T1, UNK ZnF1-6 (called full-length) (human, UniProt Q9C0B0 30-357)
T1 sequence: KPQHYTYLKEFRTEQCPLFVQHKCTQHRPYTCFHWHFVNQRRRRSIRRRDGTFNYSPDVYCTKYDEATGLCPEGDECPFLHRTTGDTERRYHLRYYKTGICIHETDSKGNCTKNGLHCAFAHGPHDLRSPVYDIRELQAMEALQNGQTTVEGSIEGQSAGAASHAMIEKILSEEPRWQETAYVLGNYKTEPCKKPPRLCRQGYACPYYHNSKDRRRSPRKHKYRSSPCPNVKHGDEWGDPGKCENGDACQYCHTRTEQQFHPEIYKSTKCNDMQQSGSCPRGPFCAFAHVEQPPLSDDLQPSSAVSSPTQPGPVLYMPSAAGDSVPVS
Experiment: nsRBNS (natural sequence RNA bind-n-seq); RBNS binding buffer (assumed for nsRBNS): 25 mM Tris pH 7.5, 150 mM KCl, 3 mM MgCl2, 0.01% Triton X-100, 500 ug/ml BSA, 20 U/ml SUPERase-In, 4 C; UNK is unkempt and MSI1 is Musashi-1; names of the RNAs are library labels; protein concentration not given here; high values mean tight binding
Over roughly 5,800 sequences, “enrichment r” has its median near 0.68; the highest 2% begin near 11. Shown is part of a subset that was picked to be rich in the highest values.
Classification field: True = binding signal at or over 2 enrichment R; False = binding signal under 2 enrichment R.

Some solved cases for reference:
INSERT INTO results (binder, group_label) VALUES
  ('chr3:23980279:23980388:+|3pUTR|ENSG00000174738|unk|FALSE|unique (ssRNA) RNA: GGGAGUUCUACAGUCCGACGAUCUUUUUCUUUUCCAAUAUAAAGUUUGCUGAAUGUACAAGAAGAGUUUAUCACUUAGGAUAUAGAAUUUUUUUAGGGGUUGGGGGAGGGGAUCUGUUAGGAAACUGUUACCUAUAAACAAAGCAACAGAGGAUUGAGCAUCA', 'True'),
  ('chr1:186359875:186359976:-|CDS|ENSG00000047410|msi1_unk|FALSE|overlapping (ssRNA) RNA: GGGAGUUCUACAGUCCGACGAUCGGAAACUCAGGAUCAGUUGCUUUUGGAGAAACUAGAGAACAAAAGAAUUAAUAAGUACCUAGAUGAAAUAGUGAAAGAAGUGGAAGCCAAAGCACCAAUUUUGAAACGCCAGCGUGAGGACAACAGAGGAUUGAGCAUCA', 'True'),
  ('chr5:6669452:6669553:+|3pUTR|ENSG00000145545|unk|FALSE|unique (ssRNA) RNA: GGGAGUUCUACAGUCCGACGAUCCAUCUCAUCUGGAGUUUUUAAAUGCCAUUUGUUUCAGUUGUCUUUAACAACAUAAUAAAUAGACUUUGCCAUUUAACAAGGUAGCUCAAAUUCUUUUACUAAUUGUUACAUCGAAACAUUCAACAGAGGAUUGAGCAUCA', 'False'),
  ('ENSG00000136451:be:win_1001|CDS|ENSG00000136451|bound_else_gene|NA|bound_elsewhere_windowed (ssRNA) RNA: GGGAGUUCUACAGUCCGACGAUCACCAAAAGCAGCAGCAGCAGCAGCAGCAGCAGCAGCAGCAGCAGCAACAACAACAACAACAACAUGUGACAAGCUGGCCAGGGAAGCAAGUAGAAACACUGAGACUGUGGGAAGAAGCUGCAACAGAGGAUUGAGCAUCA', 'False');

Moving on to another binder below.
Threshold query (binding signal >= 2 enrichment R) on chr12:98549714:98549829:+|3pUTR|ENSG00000120802|unk|FALSE|unique (ssRNA) RNA: GGGAGUUCUACAGUCCGACGAUCGAAGAUGUAUAUUUAGACCAGCACACAAUUUUGAUUUCAAUUAGCCUUAUUCUAAUAUUUAGCUUUUAGAUCUUUCAUACACAUUUUCACGUACUUUGCAAUUGAGACCAGAAAGACUUGCAACAGAGGAUUGAGCAUCA
True
